FYI, the data here is from paper PMC10620989.

Exercise: for every item that follows, state its recorded Amplification coefficient 5TA x 38SZ.
- testTarget: Mcl-1 (Mus musculus, UniProt P97287)
- Sequence (P97287 whole entry, the tested form may be a part): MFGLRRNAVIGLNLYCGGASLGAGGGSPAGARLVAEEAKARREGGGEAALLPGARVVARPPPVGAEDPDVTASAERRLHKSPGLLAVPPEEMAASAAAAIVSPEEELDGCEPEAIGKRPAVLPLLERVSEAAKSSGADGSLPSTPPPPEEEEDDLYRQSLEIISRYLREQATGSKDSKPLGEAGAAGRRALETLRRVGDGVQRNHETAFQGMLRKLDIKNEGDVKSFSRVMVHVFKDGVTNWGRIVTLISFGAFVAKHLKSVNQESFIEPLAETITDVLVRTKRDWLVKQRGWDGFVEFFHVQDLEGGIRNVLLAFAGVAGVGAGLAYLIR
- testSummary: Multifragment KTGS screen against Mcl-1 (5 TA x 38 SZ per well), LC-MS/MS
- assayConditions: multifragment KTGS, 190 combinations per well, 10 μM Mcl-1, 20 μM each fragment, pH 7.4, 37 °C, 10 h; peak area with protein / without protein
Answers are plain numbers.

O=C(NS(=O)(=O)c1ccc(CN(CCSc2ccccc2)Cc2c(F)cccc2Cl)cc1)c1ccc(-c2ccc(F)cc2)cc1 : 7
COc1cccc(CN(CCSc2ccccc2)Cc2ccc(S(=O)(=O)NC(=O)Cn3c4ccccc4c4ccccc43)cc2)c1 : 13
O=C(Cn1c2ccccc2c2ccccc21)NS(=O)(=O)c1ccc(CN(CCSc2ccccc2)Cc2c(F)cccc2Cl)cc1 : 9

Next compound, please.
Asked: Which Amplification coefficient 5TA x 38SZ is reported for this compound? Cn1cc(C(=O)C2CCCCC2)c2cc(C(=O)NS(=O)(=O)c3ccc(COc4ccc5c(=O)cc(-c6ccccc6)oc5c4)cc3)ccc21
Given back: 24

----------
- testTarget: Mcl-1 (Mus musculus, UniProt P97287)
- testSummary: Binary KTGS incubation (1 TA x 1 SZ) with Mcl-1, LC-MS/MS
- assayConditions: binary incubation mixtures with and without Mcl-1
endpointLabel: Amplification coefficient 1TA x 1SZ
One number for each entry.

O=C(NS(=O)(=O)c1ccc(CN(CCSc2ccccc2)Cc2c(F)cccc2Cl)cc1)c1ccc(-c2ccccn2)cc1 [SZ15TA25] : 4.5

Quick one: give me Amplification coefficient 1TA x 1SZ for each item below, same order please.
1. NS(=O)(=O)c1ccc(CN(CCSc2ccccc2)Cc2ccc(S(=O)(=O)NC(=O)Cn3c4ccccc4c4ccccc43)cc2)cc1 [SZ10TA15]
2. [N-]=[N+]=NS(=O)(=O)c1ccc(CN(CCSc2ccccc2)Cc2ccc(S(=O)(=O)NC(=O)c3cccc4ccccc34)cc2)cc1 [SZ9TA7]

Given back:
[8, 6]

Quick one: give me Amplification coefficient 1TA x 1SZ for each item below, same order please.
1. COc1cccc(CN(CCSc2ccccc2)Cc2ccc(S(=O)(=O)NC(=O)c3ccc(-c4ccccn4)cc3)cc2)c1 [SZ17TA25]
2. COc1ccc(Cc2ccc(C(=O)NS(=O)(=O)c3ccc(CN(CCSc4ccccc4)Cc4ccc5c(c4)OCO5)cc3)cc2)c(OC)c1OC [SZ31TA24]
3. Cn1cc(C(=O)C2CCCCC2)c2cc(C(=O)NS(=O)(=O)c3ccc(COc4ccc5c(=O)cc(-c6ccccc6)oc5c4)cc3)ccc21 [SZ14TA40]
4. Cc1noc(C)c1-c1ccc(S(=O)(=O)NC(=O)c2ccc(CN3C(=O)C(c4ccc(F)cc4F)=C(c4ccc(F)cc4F)C3=O)cc2)cc1 [SZ32TA42]
5. NS(=O)(=O)c1ccc(CN(CCSc2ccccc2)Cc2ccc(S(=O)(=O)NC(=O)CC3Sc4ccccc4NC3=O)cc2)cc1 (centres unmarked) [SZ10TA34]
6. O=C(NS(=O)(=O)c1ccc(-c2ccc(Oc3ccccc3)cc2)cc1)c1cccc2ccccc12 [SZ35TA7]

Given back:
1. 4
2. 15
3. 15
4. 6
5. 6
6. 4

Quick one: give me Amplification coefficient 1TA x 1SZ for each item below, same order please.
1. O=C(NS(=O)(=O)c1ccc(CN(CCSc2ccccc2)Cc2ccc3c(c2)OCO3)cc1)c1cccc(NCCc2ccccc2)c1 [SZ31TA44]
2. [N-]=[N+]=NS(=O)(=O)c1ccc(CN(CCSc2ccccc2)Cc2ccc(S(=O)(=O)NC(=O)c3ccc(-c4ccccn4)cc3)cc2)cc1 [SZ9TA25]
3. NS(=O)(=O)c1ccc(CN(CCSc2ccccc2)Cc2ccc(S(=O)(=O)NC(=O)c3cccc(NCCc4ccccc4)c3)cc2)cc1 [SZ10TA44]
4. Cc1nc(-c2ccccc2)sc1C(=O)NS(=O)(=O)c1ccc(CN(CCSc2ccccc2)Cc2c(F)cccc2Cl)cc1 [SZ15TA3]
5. O=C(NS(=O)(=O)c1ccc(CN(CCSc2ccccc2)Cc2c(F)cccc2Cl)cc1)c1ccc(CCc2ccccn2)cc1 [SZ15TA17]

Given back:
1. 12
2. 8
3. 9
4. 5
5. 7

----------
- testTarget: GST-tagged mouse Mcl-1-(152–309) (Mus musculus, UniProt P97287)
- testSummary: Fluorescence polarization competitive binding assay, GST-Mcl-1 / FITC-Bim-BH3
- assayConditions: FP, compound at 50 µM
Exercise: for every item that follows, state its recorded inhibition at 50 µM.
Numbers only, in %.

O=C(NS(=O)(=O)c1ccc(CN(CCSc2ccccc2)Cc2c(F)cccc2Cl)cc1)c1ccc(-c2ccccn2)cc1 : 89
CC1(C)CCN(c2ccc(C(=O)NS(=O)(=O)c3ccc(CNc4cccc([N+](=O)[O-])c4)cc3)cc2)CC1 : 54.1
CC(C)(C)c1ccc(-c2ccc(S(=O)(=O)NC(=O)c3ccc4c(ccn4Cc4ccc(C(F)(F)F)cc4C(F)(F)F)c3)cc2)cc1 : 63.6
Cn1cc(C(=O)C2CCCCC2)c2cc(C(=O)NS(=O)(=O)c3ccc(CN(CCSc4ccccc4)Cc4ccc5c(c4)OCO5)cc3)ccc21 : -52.4
Cn1cc(C(=O)c2cccs2)c2cc(C(=O)NS(=O)(=O)c3ccc(CN(CCSc4ccccc4)Cc4ccc5c(c4)OCO5)cc3)ccc21 : 40.2

Asked: Which inhibition at 50 µM is reported for this compound? COc1cccc(CN(CCSc2ccccc2)Cc2ccc(S(=O)(=O)NC(=O)c3ccc(Cc4ccc(OC)c(OC)c4OC)cc3)cc2)c1
Given back: 74.1

----------
- testTarget: Mcl-1 (Mus musculus, UniProt P97287)
- testSummary: Binary KTGS incubation (1 TA x 1 SZ) with Mcl-1, LC-MS/MS
- assayConditions: binary incubation mixtures with and without Mcl-1
Exercise: for every item that follows, state its recorded Amplification coefficient 1TA x 1SZ.
Numbers only.

Quick one: give me Amplification coefficient 1TA x 1SZ for each item below, same order please.
1. COc1cccc(CN(CCSc2ccccc2)Cc2ccc(S(=O)(=O)NC(=O)c3sc(-c4ccccc4)nc3C)cc2)c1
2. COc1cccc(CN(CCSc2ccccc2)Cc2ccc(S(=O)(=O)NC(=O)c3ccc(Cc4ccc(OC)c(OC)c4OC)cc3)cc2)c1
3. O=C(Cn1c2ccccc2c2ccccc21)NS(=O)(=O)c1ccc(CN(CCSc2ccccc2)Cc2c(F)cccc2Cl)cc1
4. [N-]=[N+]=NS(=O)(=O)c1ccc(CN(CCSc2ccccc2)Cc2ccc(S(=O)(=O)NC(=O)c3ccccc3)cc2)cc1
5. Cn1cc(C(=O)c2cccs2)c2cc(C(=O)NS(=O)(=O)c3ccc(CN(CCSc4ccccc4)Cc4ccc5c(c4)OCO5)cc3)ccc21
6. O=C(NS(=O)(=O)c1ccc(CN(CCSc2ccccc2)Cc2c(F)cccc2Cl)cc1)c1ccccc1
7. COc1ccc(Cc2ccc(C(=O)NS(=O)(=O)c3ccc(-c4ccc(Oc5ccccc5)cc4)cc3)cc2)c(OC)c1OC

Given back:
1: 12; 2: 5; 3: 10; 4: 4; 5: 6; 6: 5; 7: 8

Quick one: give me Amplification coefficient 1TA x 1SZ for each item below, same order please.
1. [N-]=[N+]=NS(=O)(=O)c1ccc(CN(CCSc2ccccc2)Cc2ccc(S(=O)(=O)NC(=O)c3ccc(CCc4ccccn4)cc3)cc2)cc1
2. COc1cc2c(cc1OC)C(c1ccccc1)N(Cc1ccc(S(=O)(=O)NC(=O)CCCN3C(=O)C(c4ccc(F)cc4F)=C(c4ccc(F)cc4F)C3=O)cc1)CC2 (stereo not shown)
3. COc1cccc(CN(CCSc2ccccc2)Cc2ccc(S(=O)(=O)NC(=O)c3cccc4ccccc34)cc2)c1
4. NS(=O)(=O)c1ccc(CN(CCSc2ccccc2)Cc2ccc(S(=O)(=O)NC(=O)c3ccc(-c4ccccn4)cc3)cc2)cc1
5. O=C(NS(=O)(=O)c1ccc(CNc2cccc([N+](=O)[O-])c2)cc1)c1ccc(CN2C(=O)C(c3ccc(F)cc3F)=C(c3ccc(F)cc3F)C2=O)cc1

Given back:
18
10
12
5
6

Asked: Which Amplification coefficient 1TA x 1SZ is reported for this compound? Cc1nc(-c2ccccc2)sc1C(=O)NS(=O)(=O)c1ccc(CN(CCSc2ccccc2)Cc2ccc3c(c2)OCO3)cc1
Given back: 7

----------
- testTarget: Mcl-1 (Mus musculus)
- testSummary: Multifragment KTGS screen against Mcl-1 (5 TA x 38 SZ per well), LC-MS/MS
- assayConditions: multifragment KTGS, 190 combinations per well, 10 μM Mcl-1, 20 μM each fragment, pH 7.4, 37 °C, 10 h; peak area with protein / without protein
Exercise: for every item that follows, state its recorded Amplification coefficient 5TA x 38SZ.
Answers are plain numbers.

The cases that follow already have their Amplification coefficient 5TA x 38SZ on record.
Cn1cc(C(=O)c2cccs2)c2cc(C(=O)NS(=O)(=O)CCN(CCSc3ccccc3)Cc3ccc4c(c3)OCO4)ccc21 [SZ28TA45] : 8
COc1ccc(Cc2ccc(C(=O)NS(=O)(=O)c3ccc(-c4ccc(Oc5ccccc5)cc4)cc3)cc2)c(OC)c1OC [SZ35TA24] : 9
Cc1nc(-c2ccccc2)sc1C(=O)NS(=O)(=O)c1ccc(CN(CCSc2ccccc2)Cc2ccc3c(c2)OCO3)cc1 [SZ31TA3] : 15
COc1ccc(Cc2ccc(C(=O)NS(=O)(=O)c3ccc(CN(CCSc4ccccc4)Cc4ccc5c(c4)OCO5)cc3)cc2)c(OC)c1OC [SZ31TA24] : 7

Quick one: give me Amplification coefficient 5TA x 38SZ for each item below, same order please.
1. COc1cccc(CN(CCSc2ccccc2)Cc2ccc(S(=O)(=O)NC(=O)c3ccc(OC(F)(F)F)cc3)cc2)c1 [SZ17TA8]
2. COc1ccc(Cc2ccc(C(=O)NS(=O)(=O)c3ccc(CN(CCSc4ccccc4)Cc4c(F)cccc4Cl)cc3)cc2)c(OC)c1OC [SZ15TA24]
3. O=C(NS(=O)(=O)c1ccc(NCCSc2ccccc2)c([N+](=O)[O-])c1)c1ccc2c(ccn2Cc2ccc(C(F)(F)F)cc2C(F)(F)F)c1 [SZ4TA30]

Given back:
8
20
20
